Tested on: 3T3-L1
Test: Antiproliferative activity against mouse 3T3L1 cells after 48 hrs by MTT assay
Format: functional
Set-up: concentration or dose not given beside the values
Value type: Activity (%)
Please give a number only; it is taken to be in %.

Item: CCCCCCCC/C=C\CCCCCCCC(=O)Oc1ccc2c(c1)C(=O)/C(=C/c1ccc(OC)cc1)O2 | Activity: 17.69

Item: C=CCCCCCCCCC(=O)Oc1ccc2c(c1)C(=O)/C(=C/c1ccc(F)cc1)O2 | Activity: 16.67

// below: Activity requested for another compound
Item: CCCCCCCC/C=C\CCCCCCCC(=O)Oc1ccc2c(c1)C(=O)/C(=C/c1cccc([N+](=O)[O-])c1)O2 | Activity: 17.55

---

System: 3T3-L1
Experiment: Glucose consumption in differentiated mouse 3T3L1 cells in high-glucose medium at 50 ug/ml after 24 hrs by glucose-oxidase method (Rvb =3.06 +/- 0.29 mmol/L)
Type: functional
Value type: Activity (mmol/L)
Please give a number only; it is taken to be in mmol/L.

Item: CCCCCCCC/C=C\CCCCCCCC(=O)Oc1ccc2c(c1)C(=O)/C(=C/c1ccc(OC)cc1)O2 | Activity: 4.91

Item: CCCCCCCC/C=C\CCCCCCCC(=O)Oc1ccc2c(c1)C(=O)/C(=C/c1ccc(F)cc1)O2 | Activity: 4.07

Item: CCCCCCCC/C=C\CCCCCCCC(=O)Oc1ccc2c(c1)C(=O)/C(=C/c1cccc([N+](=O)[O-])c1)O2 | Activity: 3.35

Item: CCCCCCCC/C=C\CCCCCCCC(=O)Oc1ccc2c(=O)c(Cc3ccc(OC)cc3)coc2c1 | Activity: 3.49

Item: CCCCC/C=C\C=C\CCCCCCCCC(=O)Oc1ccc2c(c1)C(=O)/C(=C/c1ccc(OC)c(OC)c1)O2 | Activity: 3.71

More entries:
Item: CCCCCCCC/C=C\CCCCCCCC(=O)Oc1ccc2c(=O)c(-c3ccc(OC)cc3)coc2c1 | Activity: 6.52

Item: CCCCC/C=C\C=C\CCCCCCCCC(=O)Oc1ccc2c(c1)C(=O)/C(=C/c1cccc([N+](=O)[O-])c1)O2 | Activity: 4.21

Item: CCCCCCCC/C=C\CCCCCCCC(=O)Oc1ccc2c(c1)O/C(=C\c1ccc(OC)cc1)C2=O | Activity: 5.48

---

# Activity per record follows
Test system: 3T3-L1
Test: Antiproliferative activity against mouse 3T3L1 cells after 48 hrs by MTT assay
Assay type: functional
Design: concentration or dose not given beside the values
Please give a number only; it is taken to be in %.

Item: CCCCCCCCCCCCCCCCCC(=O)Oc1ccc2c(c1)C(=O)/C(=C/c1ccc(OC)cc1)O2 | Activity: -10.93

Item: CCCCCCCCCCCCCCCCCC(=O)Oc1ccc2c(c1)C(=O)/C(=C/c1cccc([N+](=O)[O-])c1)O2 | Activity: -5.03

Item: CCCCC/C=C\C=C\CCCCCCCCC(=O)Oc1ccc2c(c1)C(=O)/C(=C/c1cccc(OC)c1)O2 | Activity: 6.45

Item: CCCCCCCCCCCCCCCCCC(=O)Oc1ccc2c(c1)C(=O)/C(=C/c1ccc(Br)cc1)O2 | Activity: 5.02

Item: CCCCCCCCCCCCCCCC(=O)Oc1ccc2c(c1)C(=O)/C(=C/c1cccc(OC)c1)O2 | Activity: -20.26

More entries:
Item: CCCCCCCC/C=C\CCCCCCCC(=O)Oc1ccc2c(=O)c(-c3ccc(OC)cc3)coc2c1 | Activity: 10.91

Item: C=CCCCCCCCCC(=O)Oc1ccc2c(c1)O/C(=C\c1ccc(OC)cc1)C2=O | Activity: -1.39

Item: CCCCCCCC/C=C\CCCCCCCC(=O)Oc1ccc2c(=O)c(Cc3ccc(OC)cc3)coc2c1 | Activity: 1.88

Item: CCCCCCCCCCCCCCCCCC(=O)Oc1ccc2c(c1)C(=O)/C(=C/c1cccc(OC)c1)O2 | Activity: -10.94

Item: C=CCCCCCCCCC(=O)Oc1ccc2c(c1)C(=O)/C(=C/c1ccc(OC)cc1)O2 | Activity: -2.09

Item: CCCCCCCC/C=C\CCCCCCCC(=O)Oc1ccc2c(c1)C(=O)/C(=C/c1cccc(Cl)c1)O2 | Activity: 20.76

Item: CCCCCCCCCCCCCCCCCC(=O)Oc1ccc2c(c1)C(=O)/C(=C/c1ccc(OC)c(OC)c1)O2 | Activity: -3.84

Item: CCCCC/C=C\C=C\CCCCCCCCC(=O)Oc1ccc2c(c1)C(=O)/C(=C/c1ccc(OC)cc1)O2 | Activity: -24.96

Item: C=CCCCCCCCCC(=O)Oc1ccc2c(c1)C(=O)/C(=C/c1cccc(Cl)c1)O2 | Activity: 57.4

Item: CCCCCCCCCCCCCCCCCC(=O)Oc1ccc2c(c1)C(=O)/C(=C/c1cccc(Cl)c1)O2 | Activity: -0.06

---

# Activity per record follows
System: 3T3-L1
Assay: Glucose consumption in differentiated mouse 3T3L1 cells in low-glucose medium at 100 ug/ml after 24 hrs by glucose-oxidase method (Rvb =2.35 +/- 0.19 mmol/L)
Assay type: functional
Please give a number only; it is taken to be in mmol/L.

Tested system 3T3-L1; Activity recorded for CCCCCCCC/C=C\CCCCCCCC(=O)Oc1ccc2c(c1)C(=O)/C(=C/c1cccc([N+](=O)[O-])c1)O2 was 3.47

More entries:
Tested system 3T3-L1; Activity recorded for CCCCCCCC/C=C\CCCCCCCC(=O)Oc1ccc2c(=O)c(-c3ccc(OC)cc3)coc2c1 was 6.95

Tested system 3T3-L1; Activity recorded for C=CCCCCCCCCC(=O)Oc1ccc2c(c1)C(=O)/C(=C/c1cccc(Cl)c1)O2 was 3.56

Tested system 3T3-L1; Activity recorded for CCCCCCCC/C=C\CCCCCCCC(=O)Oc1ccc2c(=O)c(Cc3ccc(OC)cc3)coc2c1 was 3.38

Tested system 3T3-L1; Activity recorded for CCCCC/C=C\C=C\CCCCCCCCC(=O)Oc1ccc2c(c1)C(=O)/C(=C/c1ccc(OC)c(OC)c1)O2 was 3.85

Tested system 3T3-L1; Activity recorded for CCCCCCCC/C=C\CCCCCCCC(=O)Oc1ccc2c(c1)O/C(=C\c1ccc(OC)cc1)C2=O was 5.61

Tested system 3T3-L1; Activity recorded for CCc1ccc(CCOc2ccc(CC3SC(=O)NC3=O)cc2)nc1 (stereo unspecified) was 6.75

Tested system 3T3-L1; Activity recorded for CCCCC/C=C\C=C\CCCCCCCCC(=O)Oc1ccc2c(c1)C(=O)/C(=C/c1cccc([N+](=O)[O-])c1)O2 was 4.29

Tested system 3T3-L1; Activity recorded for CCCCCCCC/C=C\CCCCCCCC(=O)Oc1ccc2c(c1)C(=O)/C(=C/c1ccc(F)cc1)O2 was 4.35

Tested system 3T3-L1; Activity recorded for CCCCCCCC/C=C\CCCCCCCC(=O)Oc1ccc2c(c1)C(=O)/C(=C/c1ccc(OC)cc1)O2 was 5.05

Tested system 3T3-L1; Activity recorded for C=CCCCCCCCCC(=O)Oc1ccc2c(c1)C(=O)/C(=C/c1ccc(F)cc1)O2 was 5.45

---

Test system: 3T3-L1
Assay: Antiproliferative activity against mouse 3T3L1 cells after 48 hrs by MTT assay
Type: functional
Set-up: concentration or dose not given beside the values
// assign yes if Activity falls strictly below 10%, else no (ties count as no)

Study these solved cases before continuing.
Take the compound CCCCCCCCCCCCCCCCCC(=O)Oc1ccc2c(c1)C(=O)/C(=C/c1ccc(F)cc1)O2 and say whether its Activity is less than 10%.
yes

Take the compound C=CCCCCCCCCC(=O)Oc1ccc2c(c1)C(=O)/C(=C/c1ccc(OC)c(OC)c1)O2 and say whether its Activity is less than 10%.
yes

Take the compound C=CCCCCCCCCC(=O)Oc1ccc2c(c1)C(=O)/C(=C/c1ccc(Br)cc1)O2 and say whether its Activity is less than 10%.
yes

Take the compound CCCCC/C=C\C=C\CCCCCCCCC(=O)Oc1ccc2c(c1)C(=O)/C(=C/c1cccc([N+](=O)[O-])c1)O2 and say whether its Activity is less than 10%.
yes

Take the compound CCCCC/C=C\C=C\CCCCCCCCC(=O)Oc1ccc2c(c1)C(=O)/C(=C/c1ccc(OC)c(OC)c1)O2 and say whether its Activity is less than 10%.
no

Take the compound CCCCCCCCCCCCCCCC(=O)Oc1ccc2c(c1)C(=O)/C(=C/c1ccc(OC)c(OC)c1)O2 and say whether its Activity is less than 10%.
yes

Take the compound CCCCC/C=C\C=C\CCCCCCCCC(=O)Oc1ccc2c(c1)C(=O)/C(=C/c1ccc(Br)cc1)O2 and say whether its Activity is less than 10%.
no

Take the compound CCCCCCCC/C=C\CCCCCCCC(=O)Oc1ccc2c(c1)O/C(=C\c1ccc(OC)cc1)C2=O and say whether its Activity is less than 10%.
no

More entries:
Take the compound CCCCCCCCCCCCCCCC(=O)Oc1ccc2c(c1)C(=O)/C(=C/c1ccc(Br)cc1)O2 and say whether its Activity is less than 10%.
yes

Take the compound CCCCCCCCCCCCCCCC(=O)Oc1ccc2c(c1)C(=O)/C(=C/c1ccc(F)cc1)O2 and say whether its Activity is less than 10%.
yes

Take the compound CCCCCCCC/C=C\CCCCCCCC(=O)Oc1ccc2c(c1)C(=O)/C(=C/c1ccc(OC)c(OC)c1)O2 and say whether its Activity is less than 10%.
no

Take the compound CCCCCCCC/C=C\CCCCCCCC(=O)Oc1ccc2c(c1)C(=O)/C(=C/c1ccc(F)cc1)O2 and say whether its Activity is less than 10%.
no

Take the compound CCCCCCCCCCCCCCCCCC(=O)Oc1ccc2c(=O)c(Cc3ccc(OC)cc3)coc2c1 and say whether its Activity is less than 10%.
yes

Take the compound CCCCCCCCCCCCCCCC(=O)Oc1ccc2c(c1)C(=O)/C(=C/c1ccc(OC)cc1)O2 and say whether its Activity is less than 10%.
yes

Take the compound CCCCCCCC/C=C\CCCCCCCC(=O)Oc1ccc2c(c1)C(=O)/C(=C/c1ccc(Br)cc1)O2 and say whether its Activity is less than 10%.
yes
